The measurements presented in this section are drawn from the kinase profiling compilation of Christmann-Franck et al. (2016).

biological target: ABL2 (human); assay: KINOMEscan competition binding; details: compound 10.0 µM
Quick reference: kinase still bound, per cent of control of the listed items.
reported.property: kinase still bound, per cent of control (%)

| smiles.str | reported.property | value.measured |
| --- | --- | --- |
| COc1cc(C(=O)N2CCC(N3CCN(C)CC3)CC2)ccc1Nc1ncc2c(n1)N(C)c1ccccc1C(=O)N2C | kinase still bound, per cent of control | 97 |
| N#CCNC(=O)c1ccc(-c2ccnc(Nc3ccc(N4CCOCC4)cc3)n2)cc1 | kinase still bound, per cent of control | 57 |
| CCN(CC)CCCCNc1ncc2cc(-c3cc(OC)cc(OC)c3)c(NC(=O)NC(C)(C)C)nc2n1 | kinase still bound, per cent of control | 100 |
| CCN1CCN(C(=O)Cc2ccc(Nc3ncc(F)c(Nc4ccc(C(=O)Nc5ccccc5Cl)cc4)n3)cc2)CC1 | kinase still bound, per cent of control | 20 |
| CS(=O)(=O)N1CCN(Cc2cc3nc(-c4cccc5[nH]ncc45)nc(N4CCOCC4)c3s2)CC1 | kinase still bound, per cent of control | 100 |
| CN(C)C/C=C/C(=O)Nc1ccc(C(=O)Nc2cccc(Nc3nccc(-c4cccnc4)n3)c2)cc1 | kinase still bound, per cent of control | 100 |
| O=c1cc(N2CCOCC2)oc2c(-c3cccc4c3sc3ccccc34)cccc12 | kinase still bound, per cent of control | 92 |
| O=C1NC(=O)/C(=C/c2ccc3nccc(-c4ccncc4)c3c2)S1 | kinase still bound, per cent of control | 77 |
| C=CC(=O)Nc1cc(-n2c(=O)ccc3cnc4ccc(-c5cn[nH]c5)cc4c32)ccc1C | kinase still bound, per cent of control | 86 |
| C=CC(=O)Nc1ccc(CN(C(=O)Nc2c(Cl)c(OC)cc(OC)c2Cl)c2cc(Nc3ccc(N4CCN(C)CC4)cc3)ncn2)cc1 | kinase still bound, per cent of control | 9.1 |
| O=C(Nc1cccc(Nc2ncc(Br)c(NCCc3cnc[nH]3)n2)c1)N1CCCC1 | kinase still bound, per cent of control | 7.8 |
| C[C@@H](Oc1cc(-c2cnn(C3CCNCC3)c2)cnc1N)c1c(Cl)ccc(F)c1Cl | kinase still bound, per cent of control | 0.85 |
| COc1cc(N2CCN(C)CC2)ccc1Nc1ncc2c(n1)N(C)c1ccccc1C(=O)N2C | kinase still bound, per cent of control | 100 |
| Cc1n[nH]c2ccc(-c3cncc(OC[C@@H](N)Cc4c[nH]c5ccccc45)c3)cc12 | kinase still bound, per cent of control | 100 |
| COc1ccc(N(C(=O)Oc2c(C)cccc2C)c2ccnc(Nc3ccc(N4CCN(C)CC4)cc3)n2)c(OC)c1 | kinase still bound, per cent of control | 0.1 |

---

target: PIM2 (human) (UniProt Q9P1W9); assay: KINOMEscan competition binding; details: compound 10.0 µM
Sequence (Q9P1W9 whole entry, looked up): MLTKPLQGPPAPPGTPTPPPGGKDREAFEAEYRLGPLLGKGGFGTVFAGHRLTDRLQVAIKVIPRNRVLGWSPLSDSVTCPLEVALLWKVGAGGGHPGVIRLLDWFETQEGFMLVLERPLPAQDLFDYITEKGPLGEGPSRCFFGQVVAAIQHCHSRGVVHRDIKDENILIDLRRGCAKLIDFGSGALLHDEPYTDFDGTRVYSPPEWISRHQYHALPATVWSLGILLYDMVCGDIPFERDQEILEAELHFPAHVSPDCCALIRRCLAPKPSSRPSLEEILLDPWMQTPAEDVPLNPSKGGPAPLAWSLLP
Quick reference: kinase still bound, per cent of control of the listed items.

| smiles.str | kinase still bound, per cent of control / % |
| --- | --- |
| Cc1n[nH]c2ccc(-c3cncc(OC[C@@H](N)Cc4c[nH]c5ccccc45)c3)cc12 | 1.2 |
| C=CC(=O)Nc1ccc(CN(C(=O)Nc2c(Cl)c(OC)cc(OC)c2Cl)c2cc(Nc3ccc(N4CCN(C)CC4)cc3)ncn2)cc1 | 100 |
| CNC(=O)c1cc(Oc2ccc(NC(=O)Nc3ccc(Cl)c(C(F)(F)F)c3)cc2)ccn1 | 91 |

---

molecular target: CSNK1G3 (human) (UniProt Q9Y6M4); experiment: KINOMEscan competition binding; conditions: compound 10.0 µM
Sequence (Q9Y6M4 whole entry, looked up): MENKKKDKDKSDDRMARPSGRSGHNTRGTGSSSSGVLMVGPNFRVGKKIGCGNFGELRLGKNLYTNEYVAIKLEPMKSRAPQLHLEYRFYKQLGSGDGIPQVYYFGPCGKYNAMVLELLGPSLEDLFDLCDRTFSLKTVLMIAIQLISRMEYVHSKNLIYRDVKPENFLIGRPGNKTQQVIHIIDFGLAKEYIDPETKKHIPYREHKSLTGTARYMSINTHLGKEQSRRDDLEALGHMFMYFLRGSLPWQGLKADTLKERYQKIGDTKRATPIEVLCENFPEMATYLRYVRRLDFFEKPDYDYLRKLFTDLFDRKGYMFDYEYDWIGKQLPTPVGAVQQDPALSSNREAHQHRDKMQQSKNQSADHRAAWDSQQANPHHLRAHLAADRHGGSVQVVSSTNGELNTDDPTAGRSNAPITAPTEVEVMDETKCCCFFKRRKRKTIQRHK
reported.property: kinase still bound, per cent of control (%)

| smiles.str | measured.on | reported.property | value.measured |
| --- | --- | --- | --- |
| COc1cc(C(=O)N2CCC(N3CCN(C)CC3)CC2)ccc1Nc1ncc2c(n1)N(C)c1ccccc1C(=O)N2C | CSNK1G3 (human) (UniProt Q9Y6M4) | kinase still bound, per cent of control | 93 |
| C=CC(=O)Nc1ccc(CN(C(=O)Nc2c(Cl)c(OC)cc(OC)c2Cl)c2cc(Nc3ccc(N4CCN(C)CC4)cc3)ncn2)cc1 | CSNK1G3 (human) (UniProt Q9Y6M4) | kinase still bound, per cent of control | 100 |
| CS(=O)(=O)N1CCN(Cc2cc3nc(-c4cccc5[nH]ncc45)nc(N4CCOCC4)c3s2)CC1 | CSNK1G3 (human) (UniProt Q9Y6M4) | kinase still bound, per cent of control | 100 |
| CNC(=O)c1cc(Oc2ccc(NC(=O)Nc3ccc(Cl)c(C(F)(F)F)c3)cc2)ccn1 | CSNK1G3 (human) (UniProt Q9Y6M4) | kinase still bound, per cent of control | 91 |

---

Quick reference: kinase still bound, per cent of control of the listed items.
target: PIM3 (human) (UniProt Q86V86); assay: KINOMEscan competition binding; details: compound 10.0 µM

| smiles.str | kinase still bound, per cent of control / % |
| --- | --- |
| CCN1CCN(C(=O)Cc2ccc(Nc3ncc(F)c(Nc4ccc(C(=O)Nc5ccccc5Cl)cc4)n3)cc2)CC1 | 67 |
| O=C1NC(=O)/C(=C/c2ccc3nccc(-c4ccncc4)c3c2)S1 | 2.4 |
| N#CCNC(=O)c1ccc(-c2ccnc(Nc3ccc(N4CCOCC4)cc3)n2)cc1 | 100 |
| COc1ccc(N(C(=O)Oc2c(C)cccc2C)c2ccnc(Nc3ccc(N4CCN(C)CC4)cc3)n2)c(OC)c1 | 92 |
| C=CC(=O)Nc1ccc(CN(C(=O)Nc2c(Cl)c(OC)cc(OC)c2Cl)c2cc(Nc3ccc(N4CCN(C)CC4)cc3)ncn2)cc1 | 100 |
| Cc1n[nH]c2ccc(-c3cncc(OC[C@@H](N)Cc4c[nH]c5ccccc45)c3)cc12 | 0.75 |
| C=CC(=O)Nc1cc(-n2c(=O)ccc3cnc4ccc(-c5cn[nH]c5)cc4c32)ccc1C | 42 |
| CNC(=O)c1cc(Oc2ccc(NC(=O)Nc3ccc(Cl)c(C(F)(F)F)c3)cc2)ccn1 | 80 |
| CCN(CC)CCCCNc1ncc2cc(-c3cc(OC)cc(OC)c3)c(NC(=O)NC(C)(C)C)nc2n1 | 100 |
| CS(=O)(=O)N1CCN(Cc2cc3nc(-c4cccc5[nH]ncc45)nc(N4CCOCC4)c3s2)CC1 | 100 |
| CN(C)C/C=C/C(=O)Nc1ccc(C(=O)Nc2cccc(Nc3nccc(-c4cccnc4)n3)c2)cc1 | 78 |
| NC(=O)Nc1cc(-c2cccc(F)c2)sc1C(=O)N[C@@H]1CCCNC1 | 15 |

---

test system: RET (human), P07949 [M918T]; experiment: KINOMEscan competition binding; conditions: compound 10.0 µM
Sequence (P07949 whole entry M918T, looked up): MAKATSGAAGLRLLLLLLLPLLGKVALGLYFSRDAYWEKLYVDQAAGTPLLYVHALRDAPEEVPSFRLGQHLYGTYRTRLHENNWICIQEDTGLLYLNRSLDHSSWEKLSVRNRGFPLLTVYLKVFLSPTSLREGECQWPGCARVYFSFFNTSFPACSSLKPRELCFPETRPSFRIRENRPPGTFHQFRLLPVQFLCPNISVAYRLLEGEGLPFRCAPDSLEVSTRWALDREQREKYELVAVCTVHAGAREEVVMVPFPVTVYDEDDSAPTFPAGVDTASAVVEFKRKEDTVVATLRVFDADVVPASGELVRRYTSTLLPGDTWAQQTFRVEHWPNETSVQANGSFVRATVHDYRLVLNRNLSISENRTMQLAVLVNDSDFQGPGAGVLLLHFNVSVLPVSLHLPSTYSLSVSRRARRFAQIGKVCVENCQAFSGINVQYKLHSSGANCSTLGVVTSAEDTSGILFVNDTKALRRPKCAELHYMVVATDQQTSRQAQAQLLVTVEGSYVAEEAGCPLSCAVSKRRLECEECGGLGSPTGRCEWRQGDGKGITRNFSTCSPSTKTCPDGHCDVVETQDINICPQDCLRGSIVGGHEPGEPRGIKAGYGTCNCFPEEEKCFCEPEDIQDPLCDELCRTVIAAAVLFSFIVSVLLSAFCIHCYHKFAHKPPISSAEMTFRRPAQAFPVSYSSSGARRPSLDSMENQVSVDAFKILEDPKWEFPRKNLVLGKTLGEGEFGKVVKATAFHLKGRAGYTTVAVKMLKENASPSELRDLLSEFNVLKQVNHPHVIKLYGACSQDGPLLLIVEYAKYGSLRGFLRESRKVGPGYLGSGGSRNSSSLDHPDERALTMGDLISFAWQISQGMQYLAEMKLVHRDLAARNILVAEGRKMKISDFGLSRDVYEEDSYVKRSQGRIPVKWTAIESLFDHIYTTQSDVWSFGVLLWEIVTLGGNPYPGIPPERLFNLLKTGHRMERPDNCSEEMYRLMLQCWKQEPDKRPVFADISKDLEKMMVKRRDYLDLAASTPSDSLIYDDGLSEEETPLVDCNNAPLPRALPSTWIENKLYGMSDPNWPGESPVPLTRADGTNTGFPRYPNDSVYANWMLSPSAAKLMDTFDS
reported.property: kinase still bound, per cent of control

| compound | value.measured |
| --- | --- |
| O=C(Nc1cccc(Nc2ncc(Br)c(NCCc3cnc[nH]3)n2)c1)N1CCCC1 | 0.05% |
| CS(=O)(=O)N1CCN(Cc2cc3nc(-c4cccc5[nH]ncc45)nc(N4CCOCC4)c3s2)CC1 | 100% |
| COc1cc(C)c(Sc2cnc(NC(=O)c3ccc(CNC(C)C(C)C)cc3)s2)cc1C(=O)N1CCN(C(C)=O)CC1 (stereo not drawn) | 32% |

---

Quick reference: kinase still bound, per cent of control of the listed items.
biological target: GRK1 (human); experiment: KINOMEscan competition binding; settings: compound 10.0 µM
reported.property: kinase still bound, per cent of control (%)

| smiles.str | reported.property | value.measured |
| --- | --- | --- |
| N#CCNC(=O)c1ccc(-c2ccnc(Nc3ccc(N4CCOCC4)cc3)n2)cc1 | kinase still bound, per cent of control | 100 |
| COc1cc(C(=O)N2CCC(N3CCN(C)CC3)CC2)ccc1Nc1ncc2c(n1)N(C)c1ccccc1C(=O)N2C | kinase still bound, per cent of control | 91 |
| O=C(Nc1cccc(Nc2ncc(Br)c(NCCc3cnc[nH]3)n2)c1)N1CCCC1 | kinase still bound, per cent of control | 47 |
| COc1ccc(N(C(=O)Oc2c(C)cccc2C)c2ccnc(Nc3ccc(N4CCN(C)CC4)cc3)n2)c(OC)c1 | kinase still bound, per cent of control | 100 |
| C=CC(=O)Nc1cc(-n2c(=O)ccc3cnc4ccc(-c5cn[nH]c5)cc4c32)ccc1C | kinase still bound, per cent of control | 75 |
| NC(=O)Nc1cc(-c2cccc(F)c2)sc1C(=O)N[C@@H]1CCCNC1 | kinase still bound, per cent of control | 0.6 |

---

target: MAPK4 (human); assay: KINOMEscan competition binding; settings: compound 10.0 µM

| smiles.str | kinase still bound, per cent of control [%] |
| --- | --- |
| COc1cc2ncnc(-n3nc(-c4ccccn4)nc3N)c2cc1OC | 85 |
| CN(C)C/C=C/C(=O)Nc1ccc(C(=O)Nc2cccc(Nc3nccc(-c4cccnc4)n3)c2)cc1 | 19 |
| COc1cc(C(=O)N2CCC(N3CCN(C)CC3)CC2)ccc1Nc1ncc2c(n1)N(C)c1ccccc1C(=O)N2C | 100 |
| CCN1CCN(C(=O)Cc2ccc(Nc3ncc(F)c(Nc4ccc(C(=O)Nc5ccccc5Cl)cc4)n3)cc2)CC1 | 82 |
| O=C1NC(=O)/C(=C/c2ccc3nccc(-c4ccncc4)c3c2)S1 | 100 |
| COc1ccc(N(C(=O)Oc2c(C)cccc2C)c2ccnc(Nc3ccc(N4CCN(C)CC4)cc3)n2)c(OC)c1 | 100 |
| C[C@@H](Oc1cc(-c2cnn(C3CCNCC3)c2)cnc1N)c1c(Cl)ccc(F)c1Cl | 84 |
| CNC(=O)c1ccc(Nc2cc(Nc3ccccc3S(=O)(=O)C(C)C)c3cc[nH]c3n2)nc1 | 100 |
| COCC(=O)NC/C=C/c1ccc2ncnc(Nc3ccc(Oc4ccc(C)nc4)c(C)c3)c2c1 | 100 |
| N#CCNC(=O)c1ccc(-c2ccnc(Nc3ccc(N4CCOCC4)cc3)n2)cc1 | 93 |
| O=c1cc(N2CCOCC2)oc2c(-c3cccc4c3sc3ccccc34)cccc12 | 100 |
| COc1cc2ncn(-c3cc(OCc4ccccc4C(F)(F)F)c(C(N)=O)s3)c2cc1OC | 100 |
